Origin of measurements: PubChem BioAssay AID1963430

system: 521955-158-R2-J5-PDC complex spheroid growth, % test/control; experiment: Anticancer human tumor 521955-158-R2-J5-PDC patient-derived pancreatic carcinoma cell line growth inhibition [Asc]; conditions: second compound 0.316 µM; first compound 0.316 µM; active compounds read low;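 further: spheroids exposed to agents for 7 days before readout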
Field 'label' (enum: Y / N). Set to Y when viability, T/C is strictly under 20%; else N.

Incoming: Take the compound COc1c(OCCCN2CCOCC2)ccc2c3n(c(=NC(=O)c4cnc(N)nc4)nc12)CCN3 + Cc1c(S(C)(=O)=O)c(-c2cc(F)cc(N3CCN(c4ccc(NS(=O)(=O)c5ccc(NC(CCN6CCC(C(=O)OCCCP(=O)(O)O)CC6)CSc6ccccc6)c(S(=O)(=O)C(F)(F)F)c5)cc4)CC3)c2)c(-c2ccc(Cl)cc2)n1C(C)C and say whether its viability, T/C is less than 20%.
Outgoing: Y

Incoming: Next up: O=C(c1ccc(F)c(F)c1Nc1ccc(I)cc1F)N1CC(O)([C@@H]2CCCCN2)C1 + Cc1c(S(C)(=O)=O)c(-c2cc(F)cc(N3CCN(c4ccc(NS(=O)(=O)c5ccc(NC(CCN6CCC(C(=O)OCCCP(=O)(O)O)CC6)CSc6ccccc6)c(S(=O)(=O)C(F)(F)F)c5)cc4)CC3)c2)c(-c2ccc(Cl)cc2)n1C(C)C
Outgoing: N

Incoming: // next record C=CC(=O)N1CCN(c2nc(=O)n(-c3c(C)ccnc3C(C)C)c3nc(-c4c(O)cccc4F)c(F)cc23)C(C)C1 (configuration not stated) + Cc1c(S(C)(=O)=O)c(-c2cc(F)cc(N3CCN(c4ccc(NS(=O)(=O)c5ccc(NC(CCN6CCC(C(=O)OCCCP(=O)(O)O)CC6)CSc6ccccc6)c(S(=O)(=O)C(F)(F)F)c5)cc4)CC3)c2)c(-c2ccc(Cl)cc2)n1C(C)C
Outgoing: N

Incoming: What do you have for C#Cc1c(F)ccc2cc(O)cc(-c3ncc4c(N5CC6CCC(C5)N6)nc(OCC56CCCN5CC(F)C6)nc4c3F)c12 (configuration not stated) + CNC(C)C(=O)NC1CN(S(=O)(=O)c2cccc(S(=O)(=O)N3CCC4CCC(C(=O)NC(c5ccccc5)c5ccccc5)N4C(=O)C(NC(=O)C(C)NC)C3)c2)CCC2CCC(C(=O)NC(c3ccccc3)c3ccccc3)N2C1=O ?
Outgoing: Y

Incoming: Entry COc1c(OCCCN2CCOCC2)ccc2c3n(c(=NC(=O)c4cnc(N)nc4)nc12)CCN3 + CNC(C)C(=O)NC1CN(S(=O)(=O)c2cccc(S(=O)(=O)N3CCC4CCC(C(=O)NC(c5ccccc5)c5ccccc5)N4C(=O)C(NC(=O)C(C)NC)C3)c2)CCC2CCC(C(=O)NC(c3ccccc3)c3ccccc3)N2C1=O please
Outgoing: Y

Incoming: Proceed to C=C(F)C(=O)N1CCN(c2nc(OCC3CCCN3C)nc3c2CCN(c2cccc4cccc(Cl)c24)C3)CC1CC#N (configuration not stated) + CNC(C)C(=O)NC1CN(S(=O)(=O)c2cccc(S(=O)(=O)N3CCC4CCC(C(=O)NC(c5ccccc5)c5ccccc5)N4C(=O)C(NC(=O)C(C)NC)C3)c2)CCC2CCC(C(=O)NC(c3ccccc3)c3ccccc3)N2C1=O
Outgoing: N

Incoming: Then this compound: C#Cc1c(F)ccc2cc(O)cc(-c3ncc4c(N5CC6CCC(C5)N6)nc(OCC56CCCN5CC(F)C6)nc4c3F)c12 (configuration not stated) + Cc1c(S(C)(=O)=O)c(-c2cc(F)cc(N3CCN(c4ccc(NS(=O)(=O)c5ccc(NC(CCN6CCC(C(=O)OCCCP(=O)(O)O)CC6)CSc6ccccc6)c(S(=O)(=O)C(F)(F)F)c5)cc4)CC3)c2)c(-c2ccc(Cl)cc2)n1C(C)C
Outgoing: N
